# IC50 values compiled below
protocol_description: Inhibition of wild type Streptococcus pneumoniae LigA
Number in µM, nothing else.

Previously resolved entries follow.
NC(=O)c1cnc(N)c2ccsc12: 25
NC(=O)c1cnc(N)c2c(C(N)=O)csc12: 52
CCOC(=O)c1cc2c(N)ncc(C(N)=O)c2s1: 9.4

Return value of IC50 for input `Cc1c(Br)sc2c(C(N)=O)cnc(N)c12` , no commentary. 3.1

Return value of IC50 for input `CCNC(=O)c1cc2c(N)ncc(C(N)=O)c2s1` , no commentary. 140

Return value of IC50 for input `NC(=O)c1cnc(N)c2c(Br)csc12` , no commentary. 36

Return value of IC50 for input `CCCNc1ncc(C(N)=O)c2sc(Br)cc12` , no commentary. 150

Return value of IC50 for input `NC(=O)c1cc2c(N)ncc(C(N)=O)c2s1` , no commentary. 9.4
